- procedure text: gradient 5% acetonitrile 3 min, to 50% in 2 min, to 85% in 15 min, held 3 min, 100 µL/min
- assay conditions: column: Zorbax Extend-C18 2.1 x 50 mm; eluents: water / acetonitrile, 0.1% formic acid
quantity name: RP-LC retention time (s)
Number only, in s; omit the unit.

These solved cases illustrate the format of a correct answer.
O=C(CCCc1nc(-c2cccnc2)no1)Nc1nc(-c2ccccc2)cs1
865
CN1CCC(N2CCN(C(=O)c3cc(-c4ccc(F)cc4)cn3C)CC2)CC1
576
NC(=O)C1CCN(C(=O)Cc2csc(NC(=O)Nc3ccc(Cl)cc3)n2)CC1
684
C=CCN1C(=O)COc2ccc(-c3csc(NC(=O)C4CCCCC4)n3)cc21
1060

Cc1cc(N2CCN(S(=O)(=O)c3ccc(-c4ccccc4)cc3)CC2)nc(NC2CCCCC2)n1 has a reported RP-LC retention time of 970
